# inhibition per entry
experiment: 384-well plate pilot, post-Golgi transport modulator project, inhibition of yeast transport mutant growth (AID 636); details: absorbance 615 nm, about 18 h, stronger effect = higher value
Reply with just the number (in %).

Reference set, count: 3
>>> numeric_result("CN(C(=O)c1cc2sccc2n1C)C1CCCCC1")
-7.3
>>> numeric_result("CCOC(=O)c1cccc(NC(=O)CSc2nnc(C3CCCCC3)n2C)c1")
-6.22
>>> numeric_result("Cc1oc(-c2ccccc2F)nc1CS(=O)(=O)CC(=O)N1CCN(Cc2ccccc2)CC1")
-3.07

Q. Entry CCn1nc(C)c(NC(=O)c2cc(Br)ccc2Cl)c1C has what inhibition?
A. -4.42

Q. // inhibition lookup, key: CCN(Cc1cc2ccccc2[nH]c1=O)S(=O)(=O)c1ccccc1
A. -4.59

Q. Any idea what inhibition was measured for CCNCC(O)COCC(O)CNCC (centres undefined) ?
A. -1.03

Q. I would be grateful if you could share the reported inhibition for CCCCC(=O)NCCc1ccc(S(N)(=O)=O)cc1 .
A. -2.16

Q. Please report the recorded inhibition for CCOC(=O)c1c(C)n(C)c2ccc(OC)c(NC(=O)CCN3CCSCC3)c12 .
A. -2.89

Q. What does the data say about its inhibition? Entry: COc1cc(CC(=O)NCc2ccc3c(c2)OCO3)cc(OC)c1OC
A. -1.84

Q. What does the record list as inhibition for CCOc1cc(C2C(C(=O)c3ccccc3)=C(C(=O)OC)Nc3nnnn32)ccc1O (centres undefined) ?
A. -1.84

Q. Data request, read-out inhibition, for Cc1c(NC(=O)C2(c3ccccc3)CCOCC2)c(=O)n(-c2ccccc2)n1C
A. -3.07

Q. Any idea what inhibition was measured for CCOc1cc(S(=O)(=O)N2CCC(Cc3ccccc3)CC2)c(OCC)cc1-n1cnnn1 ?
A. 5.95

----------
test: reversal of MRP1-mediated doxorubicin resistance, pilot screen, H69AR cells, doxorubicin co-treatment (AID 601); conditions: H69AR cells + 2 uM doxorubicin, CellTiter-Glo, 72 h; measured here: viability with 2 uM doxorubicin; at 10 µM; stronger effect = lower value
Field: label. Allowed values: rule met (viability < 90%) or rule not met (viability >= 90%).

Study these solved cases before continuing.
>>> label_class("CC(C(=O)N1CCCCC1)n1ncn2cccc2c1=O (stereo unspecified)")
"rule met"
>>> label_class("CCOC(=O)c1nnc(-c2ccccc2)o1")
"rule met"
>>> label_class("O=C(COc1ccc(Cl)cc1)Nc1nc(-c2cccs2)cs1")
"rule met"
>>> label_class("O=c1[nH]c2sc3c(c2c2nncn12)CCCC3")
"rule not met"
>>> label_class("Cc1nnc(C)c2c(C)n(-c3ccc(Br)cc3)c(C)c12")
"rule met"

Q. Is viability of O=C1CC(C2CCCO2)C(=O)N1Cc1ccccc1 (stereo unspecified) strictly below 90%?
A. rule not met

Q. Identify whether the compound O=C1C2C3C=CC(C3)C2C(=O)N1Cc1ccccc1 (stereo unspecified) records viability below 90%.
A. rule met

----------
inhibition listing for selected compounds.
assay: growth suppression of yeast trafficking mutant, preliminary HTS, modulators of trafficking downstream of Golgi apparatus project, 1536-format plate, OD 615 nm (AID 637); conditions: yeast transport mutant growth, absorbance 615 nm, 18 h; stronger effect = higher value
State the answer as a number, implicitly in %.

Consider the reported inhibition for these compounds:
>>> numeric_result("COc1cc(NC(=O)NC(C)(C(F)(F)F)C(F)(F)F)cc(OC)c1OC")
11.3
>>> numeric_result("COC(=O)C1=C(C)Nc2nnnn2C1c1cccs1 (configuration not stated)")
5.71
>>> numeric_result("CCOC(=O)c1c(C)[nH]c(C(=O)Cn2c(=O)oc3ccccc32)c1C")
0.33
>>> numeric_result("Cc1cc(C)n(CC2CC(=O)N(c3ccc(Cl)c(Cl)c3)C2=O)n1 (configuration not stated)")
-9.05
>>> numeric_result("CC1=C/C(=C/N(C)c2ccccc2)C(=O)S1")
-3.49
>>> numeric_result("CC(C)CNS(=O)(=O)c1ccc(CCC(=O)N2CCOCC2)cc1")
-4.59

Q. Quick check: inhibition of CCC(C)(C)n1nnnc1C(c1ccc(OC)c(OC)c1)N1CCN(c2ccc(F)cc2)CC1 (configuration not stated) ?
A. 2

Q. Find the recorded inhibition belonging to CS(=O)(=O)N(CC(=O)Nc1ccc2c(c1)OCCO2)Cc1ccccc1 and report it.
A. -0.79

Q. // inhibition lookup, key: CC1=C(C(=O)Nc2ccccc2)C(c2cccs2)C(C#N)=C(SCC#N)N1 (configuration not stated)
A. 19.2

Q. Query (compound): O=C(NCc1cccs1)C1CCN(S(=O)(=O)c2cccs2)CC1 ; field requested: inhibition
A. -4.29

Q. For the compound shown here, COc1ccc2c(c1)OC(O)(C(F)F)CC2=O (configuration not stated) , give the reported inhibition.
A. -2

Q. Consider the compound shown here: N=c1c(C(=O)NCc2ccc3c(c2)OCO3)cc2c(=O)n3ccccc3nc2n1Cc1cccnc1 What is its recorded inhibition?
A. -2.3

Q. Param item = O=c1cc(COn2nnc3ccc(C(F)(F)F)cc32)nc2sccn12 ; retrieve measured inhibition.
A. 0.63

Q. What measured inhibition goes with Cc1cc(Nc2ccc(N3CCC(C)CC3)cc2)n2ncnc2n1 ?
A. 3.02

Q. Suppose we examine the compound Cn1c(CCCNC(=O)c2ccccc2)nc2ccccc21 ; what inhibition value has been reported?
A. -1.83

Q. Bench note: what inhibition did N#Cc1c(N)n(CCNC(=O)c2cccs2)c2nc3ccccc3nc12 show?
A. -0.16

Q. Requested read-out: inhibition. Entry: C=C(C)c1cccc(C(C)(C)NC(=O)Nc2ncccn2)c1
A. -4.73

----------
assay: reversal of MRP1-mediated doxorubicin resistance, pilot screen, H69AR cells, doxorubicin co-treatment (AID 601); details: H69AR cells + 2 uM doxorubicin, CellTiter-Glo, 72 h; measured here: viability with 2 uM doxorubicin; at 10 µM; stronger effect = lower value
Readout: viability (%)
Return type: number; implicit unit %.

Here's what some known entries look like.
>>> numeric_result("CN(C)c1nc(Oc2ccc(=O)n(C)n2)nc(N2CCOCC2)n1")
91.2
>>> numeric_result("CCOc1ccc(NC(=O)CN(C)S(=O)(=O)c2cccs2)cc1")
87.8

Q. # input molecule: COCCCN1C(=O)C(O)=C(C(=O)c2ccco2)C1c1ccc(Br)cc1 (centres undefined) ; wanted: its viability
A. 87.4

Q. Entry COc1ccccc1N1CCN(C(=O)c2ccc(CS(=O)(=O)c3ccccc3OC)o2)CC1 : reported viability = ?
A. 88.1

----------
test: reversal of MRP1-mediated doxorubicin resistance, pilot screen, H69AR cells, doxorubicin co-treatment (AID 601); conditions: H69AR cells + 2 uM doxorubicin, CellTiter-Glo, 72 h; at 10 µM; stronger effect = higher value
The source made the active and inactive calls.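 The calls were made as follows: active = viability loss from added drug above about 55%, and viability with drug at most 40%, in both replicates (limit read from the data, passing the limit was not always enough); inconclusive = both conditions met in only one replicate; inactive = neither replicate meets both conditions.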
Readout: differential viability (reversal)

>>> result("COc1cc(OC)c(C(=O)Nc2ccc(N(C)C)cc2)cc1OC")
"-4.37% (inactive)"
>>> result("Cc1ccc(NC2=NC(c3ccccc3)n3c(nc(C)cc3=O)N2)cc1 (stereo not given)")
"11.3% (inactive)"
>>> result("C=CCSc1nnc(-c2ccccc2NC(C)=O)c(=O)[nH]1")
"9.55% (inactive)"
>>> result("CCOc1ccc(C(=O)Nc2ccc(N3CCN(C)CC3)cc2)cc1Br")
"10.2% (inactive)"
>>> result("CC1(C)Cc2noc(N)c2C(C)(C)N1O")
"14.8% (inactive)"

Q. Which differential viability (reversal) value belongs to CCOC(=O)c1cccc(NC(=O)CSc2nnc(-c3cccnc3)n2CC)c1 ?
A. 13.3% (inactive)

Q. Value lookup for differential viability (reversal); key = Cc1cccc2sc(NC(=O)Cn3cccc3)nc12
A. -8.27% (inactive)

Q. Param item = COC(=O)c1sc(NC(=O)c2ccoc2C)nc1C ; retrieve measured differential viability (reversal).
A. 2.44% (inactive)

Q. Suppose we examine the compound CC(=O)c1nnn(-c2nc(N3CCCC3)nc(N(c3ccccc3)c3ccccc3)n2)c1C ; what differential viability (reversal) value has been reported?
A. 5.7% (inactive)

Q. For the compound Cc1cccc(C2c3c(n(C)c(=O)n(C)c3=O)N=C3c4ccccc4C(=O)C32)c1 (stereo not given) , what differential viability (reversal) is on record?
A. -9.63% (inactive)

Q. Record request: differential viability (reversal) value, item CCn1cc(S(=O)(=O)CC(=O)Nc2ccc(OC)cc2)c2ccccc21
A. 21.4% (inactive)

Q. Please report the recorded differential viability (reversal) for CCOC(=O)N1CCN(c2c(NCCN(C)Cc3ccccc3)c(=O)c2=O)CC1 .
A. 6.12% (inactive)

----------
biological target: Receptor tyrosine-protein kinase erbB-2 (Homo sapiens); assay: reducers of endogenous Her2 protein level, primary screen, SKBR3 breast tumor cells, AlphaScreen, ATP viability (AID 461); settings: 18-24 h, at 10 µM, stronger effect = lower value;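 further: lower value means less Her2 protein in the cells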
Activity calls are given as the source filed them.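 The calls were made as follows: active = Her2 level under about 52% in both replicate screens, with viability over 70% of control (limit read from the data); inconclusive = Her2 under the limit in one screen only, or viability under 70%; inactive = Her2 level above the set limit.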
Listed here are compounds together with their documented Her2 level.

// below: answered compounds
>>> result("COc1ccccc1OCC(=O)Nc1ccc(S(=O)(=O)Nc2nc(C)cc(C)n2)cc1")
"184% (inactive)"
>>> result("O=C(O)C1C2CCC(O2)C1C(=O)NCCC1=CCCCC1 (stereo not drawn)")
"118% (inactive)"
>>> result("COc1ccc(-c2cc(C(F)(F)F)nc(SCC(=O)NCc3ccco3)n2)cc1OC")
"84% (inactive)"
>>> result("CCCN(Cc1cc2cc(C)ccc2[nH]c1=O)C(=O)c1cccc(OC)c1")
"91% (inactive)"
>>> result("CCOC(=O)c1ccc2nc(C)c3c(c2c1)OC(C)C3 (stereo not drawn)")
"124% (inactive)"

Q. Requested field: Her2 level. Item: CCOC(=O)N1CCN(C(=O)COc2ccc(Br)cc2Cl)CC1
A. 112% (inactive)

Q. Give its Her2 level value. Item: O=C(CN1C(=O)CSC1=O)N1CCc2ccccc2C1
A. 98% (inactive)

Q. Her2 level lookup needed for CN(C)CCCN1C(=O)C(=O)/C(=C(/O)c2ccncc2)C1c1cccc(Br)c1 (stereo not drawn) , thanks.
A. 97% (inactive)

Q. Fill in: Her2 level of NC1=NC(c2ccc(Br)cc2)n2c(nc3ccccc32)N1 (stereo not drawn) is ___
A. 82% (inactive)

Q. Reported Her2 level, compound O=C(CSc1ncn[nH]1)c1ccco1 : ____
A. 92% (inactive)

Q. Which Her2 level is listed for Cc1nc(CNS(=O)(=O)c2ccc3c(c2)OCCO3)cs1 ?
A. 142% (inactive)

Q. Tell me the measured Her2 level of Cc1ccc(Cn2c(SCC(C)C)nc3c2c(=O)n(C)c(=O)n3C)cc1 , please.
A. 75.5% (inactive)

Q. Value lookup for Her2 level; key = CCOC(=O)c1nnn(CC(=O)Nc2cccc(OC)c2)c1C(=O)OCC
A. 86.5% (inactive)

Q. Look at this compound and give its reported Her2 level. O=C(NCc1cccnc1)c1ccccc1Br
A. 98.5% (inactive)

Q. Could you share which Her2 level value was measured for CN1CC[n+]2cnc3ccccc3c21 ?
A. 92% (inactive)

Q. Given COc1cc(-c2nnc(SCc3c(F)cccc3Cl)o2)cc(OC)c1OC , state its recorded Her2 level.
A. 103% (inactive)

Q. Data request, read-out Her2 level, for COC(=O)c1cc2ccsc2n1CC(=O)Nc1cc(C)cc(C)c1
A. 124% (inactive)

Q. Entry under review: COc1ccc(Br)cc1CNC(=O)C1CCCN(S(C)(=O)=O)C1 (stereo not drawn) . Reported Her2 level?
A. 104% (inactive)

src = PubChem BioAssay
